- PROTOCOL: physchem
- CONDITION PARAMETERS: pH 7.4
- Protocol: HPLC was performed on an Agilent 1100 system with an ultraviolet diode array detector. […] Binding measurements were performed using Regis Technologies IAM.PC.DD2 (100 × 4.6 mm), HiChrom Chiralpak-HSA (50 × 3 mm) and HiChrom Chiralpak-AGP (50 × 3 mm) columns. […] Retention times were converted to log k and % binding, using calibration routines described in[72].
Where a SMILES comes first, the peptide text is derived from it. [ ]: non-standard residue; d: D form. Orn = NCCC[C@H](N)C(=O)O
READOUT TYPE: chromatographic logD
Write no unit; give the number alone.

Looking up CC(C)C[C@@H]1NC(=O)[C@H](CCCN)NC(=O)[C@H](C(C)C)NC(=O)[C@@H]2CCCN2C(=O)[C@@H](Cc2ccccc2)NC(=O)[C@H](CC(C)C)NC(=O)[C@H](CCCN)NC(=O)[C@H](C(C)C)NC(=O)[C@@H]2CCCN2C(=O)[C@@H](Cc2ccccc2)NC1=O [GS, gramicidin S] (cyclo(V[Orn]L[dF]PV[Orn]L[dF]P)) , I found its chromatographic logD recorded as 3.51

###

- PROTOCOL: physchem
- CONDITION PARAMETERS: pH 10.5
Where a SMILES comes first, the peptide text is derived from it. [ ]: non-standard residue; d: D form. Orn = NCCC[C@H](N)C(=O)O
READOUT TYPE: chromatographic logD
Give a plain numeric answer without units written out.

// recorded chromatographic logD for CC(C)C[C@@H]1NC(=O)[C@H](CCCN)NC(=O)[C@H](C(C)C)NC(=O)[C@@H]2CCCN2C(=O)[C@@H](Cc2ccccc2)NC(=O)[C@H](CC(C)C)NC(=O)[C@H](CCCN)NC(=O)[C@H](C(C)C)NC(=O)[C@@H]2CCCN2C(=O)[C@@H](Cc2ccccc2)NC1=O [GS, gramicidin S] (cyclo(V[Orn]L[dF]PV[Orn]L[dF]P)) : 7.52

###

- PROTOCOL: physchem
- CONDITION PARAMETERS: pH 7.4
Where no end group is shown, it is not given here.
READOUT TYPE: chromatographic logD
No unit in the answer, only the number.

SUBSTANCE	READOUT NUMBER
FVQWFSKFLGRIL-NH2 [TL, temporin L]	2.92

Proceeding to the next substance to report its chromatographic logD.
The substance identified as VRLIVAVRIWRR-NH2 [IDR, IDR-1018] registered its chromatographic logD at 0.88

Ref: paper PMC6884456
